- Tested on: Escherichia coli IAI1
- assay_text: fold change of Putrescine concentration vs plate DMSO controls (fold change (ratio)); higher = more amine produced, active = hit call of the paper (significant change in both replicates, either direction)
- details: incubation time: 27 h, anaerobic, 37 °C
Where a name gives a salt, the structure may show the parent alone.
Catalogue of fold change of Putrescine concentration readings, one per entry.
Respond numerically, and do not add a unit to the figure.

Take a look at these entries with their results.
// returns fold change of Putrescine concentration for C[C@]12CC[C@@H]3c4ccc(OS(=O)(=O)O)cc4CC[C@H]3[C@@H]1CCC2=O [Estropipate piperazine salt] (20 µM) with Escherichia coli IAI1; value = 1.04

// returns fold change of Putrescine concentration for N=C(N)NS(=O)(=O)c1ccc(N)cc1 [Sulfaguanidine] (20 µM) with Escherichia coli IAI1; value = 1.2

// returns fold change of Putrescine concentration for O=C(CO)[C@@H](O)[C@@H](O)[C@H](O)CO [D-Tagatose] (50 µM) with Escherichia coli IAI1; value = 1.03

// returns fold change of Putrescine concentration for CC(=O)c1ccc2c(c1)N(CCCN(C)C)c1ccccc1S2 [Acetopromazine maleate salt] (20 µM) with Escherichia coli IAI1; value = 1

// returns fold change of Putrescine concentration for O=C(Cn1c(=O)sc2ccc(Cl)cc21)N1CCN(CCO)CC1 [Tiaramide Hydrochloride] (20 µM) with Escherichia coli IAI1; value = 0.959

Further cases:
// returns fold change of Putrescine concentration for CC(=O)OCC(=O)[C@@]1(O)CC[C@H]2[C@@H]3CCC4=CC(=O)C=C[C@]4(C)[C@@]3(F)[C@@H](O)C[C@@]21C [Isoflupredone acetate] (20 µM) with Escherichia coli IAI1; value = 1

// returns fold change of Putrescine concentration for CCOC(=O)[C@H](CCc1ccccc1)N[C@@H](C)C(=O)N1C(=O)N(C)C[C@H]1C(=O)O [Imidapril hydrochloride] (20 µM) with Escherichia coli IAI1; value = 1.05

// returns fold change of Putrescine concentration for CS(=O)(=O)OCCCCOS(C)(=O)=O [Busulfan] (20 µM) with Escherichia coli IAI1; value = 1.08

// returns fold change of Putrescine concentration for Cc1ccc(NC(=O)c2ccc(CN3CCN(C)CC3)cc2)cc1Nc1nccc(-c2cccnc2)n1 [Imatinib] (20 µM) with Escherichia coli IAI1; value = 0.954

// returns fold change of Putrescine concentration for COCCCOc1ccnc(C[S+]([O-])c2nc3ccccc3[nH]2)c1C (stereo unspecified) [Rabeprazole sodium salt] (20 µM) with Escherichia coli IAI1; value = 0.886

// returns fold change of Putrescine concentration for C[C@]12CC[C@@H]3c4ccc(O)cc4CC[C@H]3[C@@H]1CCC2=O [Estrone] (20 µM) with Escherichia coli IAI1; value = 1.04

###

- System: Klebsiella aerogenes DSM 30053
- assay_text: fold change of Putrescine concentration vs plate DMSO controls (fold change (ratio)); higher = more amine produced, active = hit call of the paper (significant change in both replicates, either direction)
- details: incubation time: 27 h, anaerobic, 37 °C
Counter-ions that a name gives are not always drawn.
Catalogue of fold change of Putrescine concentration readings, one per entry.
Respond numerically, and do not add a unit to the figure.

Take a look at these entries with their results.
get_value(item= CCN(CC)CCOCCOC(=O)C1(c2ccccc2)CCCC1 [Carbetapentane citrate] (20 µM) , readout=fold change of Putrescine concentration) returns 0.996

get_value(item= CCCCOCCOCCOCc1cc2c(cc1CCC)OCO2 [Piperonyl butoxide] (20 µM) , readout=fold change of Putrescine concentration) returns 0.999

get_value(item= C(=C\c1ccccc1)/CN1CCN(C(c2ccccc2)c2ccccc2)CC1 [Cinnarizine] (20 µM) , readout=fold change of Putrescine concentration) returns 0.998

Further cases:
get_value(item= Cc1cc(C(=O)NNCc2ccccc2)no1 [Isocarboxazid] (20 µM) , readout=fold change of Putrescine concentration) returns 0.987

get_value(item= CC(C)(CO)[C@@H](O)C(=O)NCCC(=O)NCCSSCCNC(=O)CCNC(=O)[C@H](O)C(C)(C)CO [D-Pantethine] (20 µM) , readout=fold change of Putrescine concentration) returns 1.03

get_value(item= COc1ccc2[nH]c([S+]([O-])Cc3ncc(C)c(OC)c3C)nc2c1 (configuration not stated) [Omeprazole] (20 µM) , readout=fold change of Putrescine concentration) returns 1.01

get_value(item= NCc1ccc(S(N)(=O)=O)cc1 [Mafenide hydrochloride] (20 µM) , readout=fold change of Putrescine concentration) returns 1.02

get_value(item= Cc1c(Nc2ncccc2C(=O)O)cccc1C(F)(F)F [Flunixin meglumine] (20 µM) , readout=fold change of Putrescine concentration) returns 0.959

get_value(item= CN(C)CCOC(C)(c1ccccc1)c1ccccn1 (configuration not stated) [Doxylamine succinate] (20 µM) , readout=fold change of Putrescine concentration) returns 1.01

get_value(item= COc1c(Cl)ccc(Cl)c1C(=O)O (20 µM) , readout=fold change of Putrescine concentration) returns 1.01

get_value(item= Cc1ncc(C[n+]2csc(CCO)c2C)c(N)n1 [Thiamine hydrochloride] (20 µM) , readout=fold change of Putrescine concentration) returns 0.998
